- Test system: MOLT-4 leukemia
- ASSAY_TEXT: NCI tumour cell line growth inhibition, 48 h
The entries below come with measured TGI values attached.

Example entries and their recorded answers appear below.
O=C(O)CN(c1ccc(Cl)cc1)S(=O)(=O)c1ccccc1 :: > 100 µM
COc1cc(C(=O)O)c([N+](=O)[O-])c(OC)c1OC :: > 100 µM
O=S(=O)(c1cc(Cl)ccc1Cl)N1CCN(c2ccc(Cl)c(Cl)c2)CC1 :: > 100 µM
Cc1ccc2c(c1)NC(c1ccc(C(=O)O)cc1)c1cccn1-2 (stereo not given) :: > 100 µM
COc1ccccc1/C=C1\Sc2scc(-c3cccc([N+](=O)[O-])c3)[n+]2C1=O :: 3.44 µM
O=C(O)c1cccc(S(=O)(=O)NN2C(=O)CSC2c2ccccc2)c1 (stereo not given) :: > 100 µM
CCOC(=O)c1cccc(NC(=O)CBr)c1 :: 1.29 µM
CCOC(=O)CCC(NC(=O)c1ccc(N=Cc2nc3cc(C(F)(F)F)ccc3nc2-c2ccccc2)cc1)C(=O)OCC (stereo not given) :: > 100 µM

Supply TGI value. Item: O=S(=O)(c1ccc(NC(=S)N/N=C/c2ccccc2O)cc1)N1CCCCC1
2.13 µM

Supply TGI value. Item: NS(=O)(=O)c1ccc(NC(=O)c2cc([N+](=O)[O-])cc([N+](=O)[O-])c2)cc1
> 100 µM
